T½ overview
Biological target: T1, Dimeric monkey CD48-mFc (monkey)
T1 construct: Soluble monkey CD48 with a C-terminal Fc fusion [mFc]; the whole entry is the construct
T1 chain: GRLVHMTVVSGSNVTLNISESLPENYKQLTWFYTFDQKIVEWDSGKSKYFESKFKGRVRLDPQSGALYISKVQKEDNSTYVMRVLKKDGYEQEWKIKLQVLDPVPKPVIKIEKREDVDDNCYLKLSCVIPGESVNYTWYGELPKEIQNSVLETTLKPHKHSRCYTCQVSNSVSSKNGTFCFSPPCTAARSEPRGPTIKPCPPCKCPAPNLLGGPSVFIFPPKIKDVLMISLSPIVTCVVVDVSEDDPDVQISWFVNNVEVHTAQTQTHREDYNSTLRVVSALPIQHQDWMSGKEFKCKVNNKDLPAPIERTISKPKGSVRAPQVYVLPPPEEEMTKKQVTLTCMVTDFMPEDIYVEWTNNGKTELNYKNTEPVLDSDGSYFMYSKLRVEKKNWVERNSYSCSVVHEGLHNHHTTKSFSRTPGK
Assay: SPR (Biacore), antibody captured by anti-Fc, CD48 in solution, 37 C
Give the value, in units of h, as a plain number.

# example entries with known answers
>>> result_number("H4H1770P (antibody, human IgG4, V domains shown, Human IgG4 Fc (H4H)) VH: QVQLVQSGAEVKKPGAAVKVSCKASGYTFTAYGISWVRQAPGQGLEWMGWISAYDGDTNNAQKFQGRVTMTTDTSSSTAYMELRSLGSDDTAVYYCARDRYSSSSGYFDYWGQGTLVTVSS VL: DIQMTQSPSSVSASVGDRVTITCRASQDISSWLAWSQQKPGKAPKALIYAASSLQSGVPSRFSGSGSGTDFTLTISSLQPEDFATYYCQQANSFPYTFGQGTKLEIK")
1.38
>>> result_number("H4H1775P (antibody, human IgG4, V domains shown, Human IgG4 Fc (H4H)) VH: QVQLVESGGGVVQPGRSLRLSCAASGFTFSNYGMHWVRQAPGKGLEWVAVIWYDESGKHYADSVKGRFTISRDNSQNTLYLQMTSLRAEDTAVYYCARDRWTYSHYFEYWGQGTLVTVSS VL: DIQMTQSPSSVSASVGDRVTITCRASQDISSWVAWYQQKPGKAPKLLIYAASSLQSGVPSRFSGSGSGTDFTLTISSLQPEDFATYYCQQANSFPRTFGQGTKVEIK")
4.85

Then there is this binder:
// sample H4H1779P (antibody, human IgG4, V domains shown, Human IgG4 Fc (H4H)) VH: QVQLVESGGGVVQPGRSLRLSCAASGFTFSNYGMHWVRQAPGKGLEWVAVIWYDESSKHYADSVKGRFTISRDNSQNTLYLQMTSLRAEDTAVYYCARDRWTYSHYFEYWGQGTLVTVSS VL: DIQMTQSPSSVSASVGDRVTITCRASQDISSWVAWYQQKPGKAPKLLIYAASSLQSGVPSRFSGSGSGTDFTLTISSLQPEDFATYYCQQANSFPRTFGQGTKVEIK , its T½ was 3.22

Values were extracted from patent US20130230533A1.
